IC50 by entry:
- Tested on: Plasmodium falciparum
- experimentDescription: In vitro antimalarial activity against Plasmodium falciparum W2
- Assay type: functional, organism-based

| structureSmiles | IC50 |
| --- | --- |
| CC1(C)N=C(N)N=C(N)N1OCCCOc1cc(F)c(F)cc1F.Cl | 0.032 ng/mL |
| Cc1cc(OCCCON2C(N)=NC(N)=NC2(C)C)ccc1C(C)C.Cl | 0.0719 ng/mL |
| CC1(C)N=C(N)N=C(N)N1OCCCOc1ccc(F)c(F)c1.Cl | 0.0332 ng/mL |
| CC1(C)N=C(N)N=C(N)N1OCCCOc1cc(F)cc(F)c1F.Cl | 0.0301 ng/mL |
| CC1(C)N=C(N)N=C(N)N1OCCc1cccc(C(F)(F)F)c1.Cl | 0.184 ng/mL |
| CC1(C)N=C(N)N=C(N)N1OCCCSc1ccc(F)cc1.Cl | 0.0222 ng/mL |
